The measured values listed here are drawn from patent US20210255193A1.

molecular target: ISOC2 Isochorismatase domain-containing protein 2, mitochondrial (Homo sapiens, UniProt Q96AB3); construct: isoTOP-ABPP experiments performed in cell lysates (in vitro); endogenous in cells; host or cells: soluble proteome of human cancer cell lines (MDA-MB-231; Ramos and Jurkat also prepared); experiment: competitive isoTOP-ABPP; type: binding; details: 50 uM, in vitro, sol, 231
Sequence (Q96AB3 whole entry, the tested form may be a part): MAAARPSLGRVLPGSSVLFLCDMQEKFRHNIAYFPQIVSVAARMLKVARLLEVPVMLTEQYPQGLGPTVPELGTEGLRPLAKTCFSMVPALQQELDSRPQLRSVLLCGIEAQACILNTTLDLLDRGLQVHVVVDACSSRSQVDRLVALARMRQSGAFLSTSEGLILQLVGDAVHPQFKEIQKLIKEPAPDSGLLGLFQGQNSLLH
observable: isoTOP-ABPP ratio (R) at liganded lysine Q96AB3_K178

{"compound": "O=C(Oc1ccc([N+](=O)[O-])cc1[N+](=O)[O-])c1ccccc1Nc1cccc(C(F)(F)F)c1 [fragment 40]", "experimentalValue": 0.9}
{"compound": "O=C(CC12CC3CC(CC(C3)C1)C2)Oc1ccc([N+](=O)[O-])cc1[N+](=O)[O-] [fragment 38]", "experimentalValue": 0.9}
{"compound": "CC(=O)Oc1ccc([N+](=O)[O-])cc1[N+](=O)[O-] [fragment 43, 2,4-Dinitrophenyl acetate]", "experimentalValue": 1.1}
{"compound": "O=C(Oc1ccc([N+](=O)[O-])cc1[N+](=O)[O-])c1ccc(Oc2ccccc2)cc1 [fragment 39, 2,4-Dinitrophenyl 4-phenoxybenzoate]", "experimentalValue": 0.9}
{"compound": "O=C(CCc1coc2cc(F)ccc2c1=O)Oc1ccc([N+](=O)[O-])cc1[N+](=O)[O-] [fragment 36]", "experimentalValue": 1.7}
{"compound": "O=C(Oc1ccc([N+](=O)[O-])cc1[N+](=O)[O-])C1CCN(C(=O)OCc2ccccc2)CC1 [fragment 34]", "experimentalValue": 1.1}
{"compound": "O=C(Oc1ccc([N+](=O)[O-])cc1[N+](=O)[O-])C(c1ccccc1)(c1ccccc1)c1ccccc1 [fragment 42, 2,4-Dinitrophenyl 2,2,2-triphenylacetate]", "experimentalValue": 1.0}
{"compound": "CC(C)(C)OC(=O)NCCCC(=O)Oc1ccc([N+](=O)[O-])cc1[N+](=O)[O-] [fragment 41]", "experimentalValue": 1.9}
{"compound": "O=C(Oc1ccc([N+](=O)[O-])cc1[N+](=O)[O-])c1ccc(-c2ccccc2)cc1 [fragment 37]", "experimentalValue": 0.9}
{"compound": "O=C(Oc1ccc([N+](=O)[O-])cc1[N+](=O)[O-])c1ccc2ccccc2n1 [fragment 35]", "experimentalValue": 1.3}
